Source listed as patent US20170233497A1.

Measured Kd by item
- SYSTEM_NAME: the molecule itself
- PROTOCOL_DESCRIPTION: native mass spectrometry; monomer-dimer equilibrium of the hinge-less CH2-CH3 fragment (homodimer)
Number only, in nM; omit the unit.

Some proteins with recorded Kd:
CH2-CH3 fragment of human IgG1 with K409R (other, UniProt P01857-1 224-330, looked up, name in EU numbering, range 341-447; As m1, with the mutation; also called G1-K409R; not shown: N-terminal 6 amino acid His tag) GQPREPQVYTLPPSRDELTKNQVSLTCLVKGFYPSDIAVEWESNGQPENNYKTTPPVLDSDGSFFLYSRLTVDKSRWQQGNVFSCSVMHEALHNHYTQKSLSLSPGK = 110
CH2-CH3 fragment of human IgG4 with F405L (other, UniProt P01861-1 221-327, looked up, name in EU numbering, range 341-447; As m7, with the mutation; also called G4-F405L; not shown: N-terminal 6 amino acid His tag) GQPREPQVYTLPPSQEEMTKNQVSLTCLVKGFYPSDIAVEWESNGQPENNYKTTPPVLDSDGSFLLYSRLTVDKSRWQEGNVFSCSVMHEALHNHYTQKSLSLSLGK = 25000
CH2-CH3 fragment of human IgG4 with F405A (other, UniProt P01861-1 221-327, looked up, name in EU numbering, range 341-447; As m7, with the mutation; also called G4-F405A; not shown: N-terminal 6 amino acid His tag) GQPREPQVYTLPPSQEEMTKNQVSLTCLVKGFYPSDIAVEWESNGQPENNYKTTPPVLDSDGSFALYSRLTVDKSRWQEGNVFSCSVMHEALHNHYTQKSLSLSLGK = 19000
CH2-CH3 fragment of wild type human IgG4 (other, UniProt P01861-1 221-327, looked up, range 341-447; His-tagged fragment without hinge; the KD is its non-covalent self-association (CH3-CH3 homodimer); not shown: N-terminal 6 amino acid His tag) GQPREPQVYTLPPSQEEMTKNQVSLTCLVKGFYPSDIAVEWESNGQPENNYKTTPPVLDSDGSFFLYSRLTVDKSRWQEGNVFSCSVMHEALHNHYTQKSLSLSLGK = 48
CH2-CH3 fragment of human IgG4 with R409A (other, UniProt P01861-1 221-327, looked up, name in EU numbering, range 341-447; As m7, with the mutation; also called G4-R409A; not shown: N-terminal 6 amino acid His tag) GQPREPQVYTLPPSQEEMTKNQVSLTCLVKGFYPSDIAVEWESNGQPENNYKTTPPVLDSDGSFFLYSALTVDKSRWQEGNVFSCSVMHEALHNHYTQKSLSLSLGK = 160

Here is the next item to consider.
Query (protein): CH2-CH3 fragment of human IgG4 with S364D (other, UniProt P01861-1 221-327, looked up, name in EU numbering, range 341-447; As m7, with the mutation; also called G4-S364D; not shown: N-terminal 6 amino acid His tag) GQPREPQVYTLPPSQEEMTKNQVDLTCLVKGFYPSDIAVEWESNGQPENNYKTTPPVLDSDGSFFLYSRLTVDKSRWQEGNVFSCSVMHEALHNHYTQKSLSLSLGK ; field requested: Kd
47
